Test: Stability in human liver microsomes assessed as compound remaining at 1 uM after 1 hr by UHPLC-MS analysis
Type: ADME
Conditions: read-out: Stability
Recorded Metric: remaining at 1 h, 1 µM (%)
Numeric only. Scale: %

Ask: Entry "CC(C)NC(=O)Nc1ccc2c(c1)C(=O)N([C@H](C)CO)C[C@@H](C)[C@H](CN(C)S(=O)(=O)c1ccc(Cl)cc1)O2" : reported remaining at 1 h, 1 µM = ?
Result: 10

----------
Target: L-type calcium channel (Homo sapiens, UniProt O60840+Q01668+Q13698+Q13936)
Experiment: Inhibition of L-type calcium channel (unknown origin) at 10 uM
Recorded Metric: inhibition at 10 µM (%)
Numeric only. Scale: %

Ask: Field: inhibition at 10 µM (L-type calcium channel (Homo sapiens, UniProt O60840+Q01668+Q13698+Q13936)). Entry: "CC(C)NC(=O)Nc1ccc2c(c1)C(=O)N([C@H](C)CO)C[C@@H](C)[C@H](CN(C)S(=O)(=O)c1ccc(Cl)cc1)O2"
Result: 19

----------
Biological target: Scavenger receptor class B member 1 (Mus musculus, UniProt Q61009)
Assay: Inhibition of mouse SR-B1 overexpressed in CHO cells assessed as inhibition of transfer of the fluorescent lipid DiI from HDL particles to cells after 3 hrs
Assay type: cell-based
Recorded Metric: pIC50
Recall that pIC50 is obtained by taking minus log10 of the concentration measured in molar.

Ask: Entry "C[C@@H]1CN([C@H](C)CO)C(=O)c2cc(NC(=O)Cc3cn(C)c4ccccc34)ccc2O[C@H]1CN(C)Cc1ccccc1" : reported pIC50 = ?
Result: 5.80

Ask: Entry "C[C@@H]1CN([C@H](C)CO)C(=O)c2cc(NC(=O)Cc3cn(C)c4ccccc34)ccc2O[C@H]1CN(C)Cc1ccc(C(F)(F)F)cc1" : reported pIC50 = ?
Result: 6.19

Ask: Entry "COc1ccc(S(=O)(=O)N(C)C[C@@H]2Oc3ccc(NC(=O)Cc4cn(C)c5ccccc45)cc3C(=O)N([C@H](C)CO)C[C@H]2C)cc1" : reported pIC50 = ?
Result: 5.70

Ask: Entry "C[C@H]1CN([C@@H](C)CO)C(=O)c2cc(NC(=O)Cc3cn(C)c4ccccc34)ccc2O[C@H]1CN(C)S(=O)(=O)c1ccc(Cl)cc1" : reported pIC50 = ?
Result: 4.91

Ask: Entry "Cc1noc(C)c1NC(=O)Nc1ccc2c(c1)C(=O)N([C@H](C)CO)C[C@@H](C)[C@H](CN(C)S(=O)(=O)c1ccc(Cl)cc1)O2" : reported pIC50 = ?
Result: 5.15

Ask: Entry "C[C@@H]1CN([C@H](C)CO)C(=O)c2cc(NC(=O)Cc3cn(C)c4ccccc34)ccc2O[C@H]1CN(C)S(=O)(=O)c1ccc(F)cc1" : reported pIC50 = ?
Result: 6.25

Ask: Entry "C[C@@H]1CN([C@H](C)CO)C(=O)c2cc(NS(=O)(=O)c3ccc(F)cc3)ccc2O[C@H]1CN(C)S(=O)(=O)c1ccc(Cl)cc1" : reported pIC50 = ?
Result: 4.85

Ask: Entry "C[C@@H]1CN([C@H](C)CO)C(=O)c2cc(NC(=O)Cc3cn(C)c4ccccc34)ccc2O[C@H]1CN(C)C" : reported pIC50 = ?
Result: 4.74

Ask: Entry "C[C@@H]1CN([C@H](C)CO)C(=O)c2cc(NC(=O)Cc3cn(C)c4ccccc34)ccc2O[C@H]1CN(C)Cc1ccc2c(c1)OCO2" : reported pIC50 = ?
Result: 6.05

Ask: Entry "C[C@@H]1CN([C@H](C)CO)C(=O)c2cc(NC(=O)Cc3cn(C)c4ccccc34)ccc2O[C@H]1CN(C)Cc1ccncc1" : reported pIC50 = ?
Result: 5.89

Ask: Entry "C[C@H]1CN([C@@H](C)CO)C(=O)c2cc(NC(=O)Cc3cn(C)c4ccccc34)ccc2O[C@@H]1CN(C)S(=O)(=O)c1ccc(Cl)cc1" : reported pIC50 = ?
Result: 4.76

----------
Assignment: determine reported IC50 for the given compounds.
Target: Scavenger receptor class B member 1 (Mus musculus)
Sequence (Q61009 whole entry): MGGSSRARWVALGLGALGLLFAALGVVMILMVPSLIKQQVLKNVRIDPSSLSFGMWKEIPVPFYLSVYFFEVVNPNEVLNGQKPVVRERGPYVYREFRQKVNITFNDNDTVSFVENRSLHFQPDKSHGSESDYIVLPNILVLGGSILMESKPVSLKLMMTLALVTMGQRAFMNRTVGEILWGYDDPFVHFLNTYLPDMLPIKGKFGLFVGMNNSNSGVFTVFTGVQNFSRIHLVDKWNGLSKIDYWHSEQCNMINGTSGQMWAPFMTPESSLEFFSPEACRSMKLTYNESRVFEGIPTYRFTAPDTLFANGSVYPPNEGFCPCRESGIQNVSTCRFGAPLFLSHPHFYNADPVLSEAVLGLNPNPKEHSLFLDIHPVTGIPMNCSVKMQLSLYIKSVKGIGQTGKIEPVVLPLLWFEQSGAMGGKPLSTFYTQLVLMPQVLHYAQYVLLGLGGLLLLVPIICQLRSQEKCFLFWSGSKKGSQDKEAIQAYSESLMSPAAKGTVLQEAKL
Assay: Inhibition of mouse SR-B1 overexpressed in CHO cells assessed as inhibition of transfer of the fluorescent lipid DiI from HDL particles to cells after 3 hrs
Format: cell-based
Numeric only. Scale: µM

Ask: Entry "C[C@@H]1CN([C@H](C)CO)C(=O)c2cc(NC(=O)Cc3cn(C)c4ccccc34)ccc2O[C@H]1CN(C)C(=O)Nc1ccccc1" : reported IC50 = ?
Result: 4.9

Ask: Entry "C[C@@H]1CN([C@H](C)CO)C(=O)c2cc(NC(=O)Cn3cnnn3)ccc2O[C@H]1CN(C)S(=O)(=O)c1ccc(Cl)cc1" : reported IC50 = ?
Result: 10

Ask: Entry "C[C@@H]1CN([C@H](C)CO)C(=O)c2cc(NC(=O)Cc3cn(C)c4ccccc34)ccc2O[C@H]1CN(C)S(=O)(=O)c1cn(C)cn1" : reported IC50 = ?
Result: 6.4

Ask: Entry "C[C@@H]1CN([C@H](C)CO)C(=O)c2cc(N(C)C)ccc2O[C@H]1CN(C)S(=O)(=O)c1ccc(Cl)cc1" : reported IC50 = ?
Result: 0.63

Ask: Entry "C[C@@H]1CN([C@H](C)CO)C(=O)c2cc(NC(=O)Cc3cn(C)c4ccccc34)ccc2O[C@H]1CN(C)S(=O)(=O)c1ccccc1" : reported IC50 = ?
Result: 0.22

Ask: Entry "C[C@@H]1CN([C@H](C)CO)C(=O)c2cc(NS(=O)(=O)c3ccccc3)ccc2O[C@H]1CN(C)S(=O)(=O)c1ccc(Cl)cc1" : reported IC50 = ?
Result: 3.2

Ask: Entry "C[C@@H]1CN([C@H](C)CO)C(=O)c2cc(NC(=O)CCN3CCOCC3)ccc2O[C@H]1CN(C)S(=O)(=O)c1ccc(Cl)cc1" : reported IC50 = ?
Result: 5

Ask: Entry "C[C@@H]1CN([C@H](C)CO)C(=O)c2cc(NC(=O)Cc3cn(C)c4ccccc34)ccc2O[C@H]1CN(C)S(C)(=O)=O" : reported IC50 = ?
Result: 9.9

Ask: Entry "COc1ccc(NC(=O)Nc2ccc3c(c2)C(=O)N([C@H](C)CO)C[C@@H](C)[C@H](CN(C)S(=O)(=O)c2ccc(Cl)cc2)O3)cc1" : reported IC50 = ?
Result: 0.3

Ask: Entry "CC(C)NC(=O)Nc1ccc2c(c1)C(=O)N(C(C)C)C[C@@H](C)[C@H](CN(C)S(=O)(=O)c1ccc(Cl)cc1)O2" : reported IC50 = ?
Result: 9.9

Ask: Entry "COC[C@@H](C)N1C[C@@H](C)[C@H](CN(C)S(=O)(=O)c2ccc(Cl)cc2)Oc2ccc(NC(=O)NC(C)C)cc2C1=O" : reported IC50 = ?
Result: 8

Ask: Entry "C[C@@H]1CN([C@H](C)CO)C(=O)c2cc(NC(=O)CCC(F)(F)F)ccc2O[C@H]1CN(C)S(=O)(=O)c1ccc(Cl)cc1" : reported IC50 = ?
Result: 0.26

Ask: Entry "C[C@@H]1CN([C@H](C)CO)C(=O)c2cc(NC(=O)C3CC3)ccc2O[C@H]1CN(C)S(=O)(=O)c1ccc(Cl)cc1" : reported IC50 = ?
Result: 2.1

----------
Tested on: CHO
Assay: Cytotoxicity against CHO cells after 24 hrs by CellTiterGlo assay
Assay type: cell-based, Cricetulus griseus
Conditions: chinese hamster
Recorded Metric: Activity

Known results for compounds:
| Smiles Entry | Recorded Metric | Recorded Value |
| --- | --- | --- |
| C[C@@H]1CN([C@H](C)CO)C(=O)c2cc(NC(=O)CCC(F)(F)F)ccc2O[C@H]1CN(C)S(=O)(=O)c1ccc(Cl)cc1 | Activity | Non-toxic |
| COc1ccc(CN(C)C[C@@H]2Oc3ccc(NC(=O)Cc4cn(C)c5ccccc45)cc3C(=O)N([C@H](C)CO)C[C@H]2C)cc1 | Activity | Non-toxic |
| COc1ccc(NC(=O)Nc2ccc3c(c2)C(=O)N([C@H](C)CO)C[C@@H](C)[C@H](CN(C)S(=O)(=O)c2ccc(Cl)cc2)O3)cc1 | Activity | Non-toxic |
| C[C@@H]1CN([C@H](C)CO)C(=O)c2cc(NC(=O)NC3CCCCC3)ccc2O[C@H]1CN(C)S(=O)(=O)c1ccc(Cl)cc1 | Activity | Non-toxic |

Ask: Entry "C[C@@H]1CN([C@H](C)CO)C(=O)c2cc(NC(=O)Nc3ccc(F)cc3)ccc2O[C@H]1CN(C)S(=O)(=O)c1ccc(Cl)cc1" : reported Activity = ?
Result: Non-toxic

Ask: Entry "C[C@@H]1CN([C@H](C)CO)C(=O)c2cc(NC(=O)Nc3ccccc3)ccc2O[C@H]1CN(C)S(=O)(=O)c1ccc(Cl)cc1" : reported Activity = ?
Result: Non-toxic

Ask: Entry "C[C@H](CO)N1C[C@H](C)[C@H](CN(C)S(=O)(=O)c2ccc(Cl)cc2)Oc2ccc(NC(=O)Cc3cn(C)c4ccccc34)cc2C1=O" : reported Activity = ?
Result: Non-toxic

Ask: Entry "C[C@@H]1CN([C@H](C)CO)C(=O)c2cc(NC(=O)CCN3CCOCC3)ccc2O[C@H]1CN(C)S(=O)(=O)c1ccc(Cl)cc1" : reported Activity = ?
Result: Non-toxic

Ask: Entry "C[C@@H]1CN([C@H](C)CO)C(=O)c2cc(NC(=O)Cc3cn(C)c4ccccc34)ccc2O[C@H]1CN(C)S(C)(=O)=O" : reported Activity = ?
Result: Non-toxic

Ask: Entry "C[C@@H]1CN([C@H](C)CO)C(=O)c2cc(NC(=O)Cc3cn(C)c4ccccc34)ccc2O[C@H]1CN(C)C(=O)NC1CCCCC1" : reported Activity = ?
Result: Non-toxic

Ask: Entry "C[C@@H]1CN([C@H](C)CN)C(=O)c2cc(NC(=O)Cc3cn(C)c4ccccc34)ccc2O[C@H]1CN(C)S(=O)(=O)c1ccc(Cl)cc1" : reported Activity = ?
Result: Non-toxic

Ask: Entry "C[C@@H]1CN([C@H](C)CO)C(=O)c2cc(NS(C)(=O)=O)ccc2O[C@H]1CN(C)S(=O)(=O)c1ccc(Cl)cc1" : reported Activity = ?
Result: Non-toxic

Ask: Entry "C[C@@H]1CN([C@H](C)CO)C(=O)c2cc(NC(=O)Cc3cn(C)c4ccccc34)ccc2O[C@H]1CN(C)S(=O)(=O)c1ccc(Cl)cc1" : reported Activity = ?
Result: Non-toxic

Ask: Entry "C[C@@H]1CN([C@H](C)CO)C(=O)c2cc(NC(=O)Cc3cn(C)c4ccccc34)ccc2O[C@H]1CN(C)S(=O)(=O)c1cccs1" : reported Activity = ?
Result: Non-toxic
